TARGET OR TEST SYSTEM: DLG4_2, P78352
Sequence (P78352 155-259): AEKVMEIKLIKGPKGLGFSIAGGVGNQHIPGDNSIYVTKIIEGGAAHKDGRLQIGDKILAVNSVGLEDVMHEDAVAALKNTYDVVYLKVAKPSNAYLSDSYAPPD
EXPERIMENT NOTES: holdup assay
Design: key: below the threshold = too weak to quantify, mostly under pKd 3.1 to 4
TEST PARAMETERS: plain residues with an end cap or a label only (N-terminal biotin on a linker: ahx)
ASSAY METRIC: pKd

// below: answered binders
NRKREIFSNF [NHERF2, Q15599] ... below the threshold
LSDPSVSTVV [GRIN1, Q05586;Q05586-2] ... 4.31
PSASCAVTAA [PDLIM4, P50479;P50479-2] ... below the threshold
SDSSGQEYSL [KCTD3, Q9Y597] ... below the threshold
HNAFLSVTTV [PDZRN4, Q6ZMN7] ... 3.51
ESLLLGPSNF [SHROOM4, Q9ULL8] ... below the threshold
TVICWPGSLV [LNX2, Q8N448] ... 4.36
GYDWGPATDL [TJP3, O95049] ... 3.68

Here are 2 binders. What values of pKd were reported for them?
1. RRRKRKRTYL [HPV49-L2, P36762]
2. RAVEEEESRF [PSCDBP, O60759]

["below the threshold", "below the threshold"]
